test.target: T1, Ala mutant of TA0096, SEQ ID NO: 29
T1 peptide: EEAMDDQWMQDEMEIGY
assay.notes: ELISA, coated peptide
measure.name: OD 490/630 nm
The answer should be a number; do not append a unit.

So what's the measured OD 490/630 nm for this one? A11 (antibody, V domains shown, Chicken variable regions in a mouse chimeric antibody (IgG1); also called anti-PAD4 antibody A11) VH: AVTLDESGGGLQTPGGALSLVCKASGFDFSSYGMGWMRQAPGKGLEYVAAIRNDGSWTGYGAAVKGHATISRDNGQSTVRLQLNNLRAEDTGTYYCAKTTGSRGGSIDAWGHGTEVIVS VL: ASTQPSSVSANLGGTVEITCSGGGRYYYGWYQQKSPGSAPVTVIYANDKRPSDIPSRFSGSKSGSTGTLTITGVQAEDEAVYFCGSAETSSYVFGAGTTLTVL
2.05

So what's the measured OD 490/630 nm for this one? G6 (antibody, V domains shown, Chicken variable regions in a mouse chimeric antibody (IgG1); also called anti-PAD4 antibody G6) VH: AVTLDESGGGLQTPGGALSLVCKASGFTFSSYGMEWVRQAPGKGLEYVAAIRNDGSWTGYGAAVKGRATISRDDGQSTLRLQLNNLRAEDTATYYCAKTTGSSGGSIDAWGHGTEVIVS VL: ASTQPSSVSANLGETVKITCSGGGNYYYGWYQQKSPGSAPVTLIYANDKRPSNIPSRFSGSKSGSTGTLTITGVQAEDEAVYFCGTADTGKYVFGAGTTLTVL
1.95

So what's the measured OD 490/630 nm for this one? E9 (antibody, V domains shown, Chicken variable regions in a mouse chimeric antibody (IgG1); also called anti-PAD4 antibody E9) VH: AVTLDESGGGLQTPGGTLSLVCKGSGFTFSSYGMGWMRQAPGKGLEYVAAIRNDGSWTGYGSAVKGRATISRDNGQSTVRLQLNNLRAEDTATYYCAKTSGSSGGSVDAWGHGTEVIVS VL: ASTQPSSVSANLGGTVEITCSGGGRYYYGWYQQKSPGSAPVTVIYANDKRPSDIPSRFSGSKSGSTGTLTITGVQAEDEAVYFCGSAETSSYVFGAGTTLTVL
1.92
